Reported kon values for a set of binders
Measured Target: SARS-COV-2 RBD extracellular domain expressed with a C-terminal mouse IgG2a (SARS-CoV-2)
Express your answer in M⁻¹ s⁻¹, writing the number without its unit.

In the examples that follow, each entry is paired with its recorded kon.
Binder	kon (M⁻¹ s⁻¹)
mAb10913 (antibody, V domains shown) VH: EVQLVESGGGLVQPGGSLRLSCAASGFTFRNYEMNWVRQAPGKGLEWVSYITSSGSTMYYADSVKGRFTISRDNAKNSLYLQMNSLRAEDTAVYYCARDGFYYYYAMDVWGQGTTVTVSS VL: QSVLTQPPSVSAAPGQKVTISCSGSSSNIGNNYVSWYQQLPGTAPKLLIYDNNKRPSGIPDRFSGSKSGTSATLGITGLQTGDEADYYCGTWDSSLSVGRVFGTGTKVTVLG	623000
mAb10982 (antibody, V domains shown) VH: EVQLVESGGGLVQPGGSLRLSCAASGLTVSSNYMSWVRQAPGKGLEWVSVIYSGGTTYYADSVKGRFTISRHNSKNTLSLQMNSLRAEDTAVYYCARGEGANYYGMDVWGQGTTVTVSS VL: QSVLTQPPSVSGAPGQRVTISCTGSSSNIGTGYDVHWYQQLPGTAPKLLIYGNSNRPSGVPDRFSGSKSGTSASLAITGLQAEDEADYYCQSYDSSLSGYVVFGGGTKLTVLG	310000

I would be grateful if you could share the reported kon for mAb10935 (antibody, V domains shown) VH: EVQLVESGGGLVQPGGSLRLSCAASGFTVSSNYMSWVRQAPGKGLEWVSLIYSGGSTYYADSVKGRFTISRHNSKNTLYLQMNSLRSEDTAVYYCARVPLGDYYYGMDVWGQGTTVTVSS VL: DIQMTQSPSSLSASVGDRVTITCQASQDINKYLNWYQQKPGKAPKLLIYDASNLETGVPSRFSGSGSGTDFTFTISSLQPEDIATYYCQQSDNLPLTFGGGTKVEIKR . 383000

Subsequent entry: mAb10971 (antibody, V domains shown) VH: EVQLVESGGGLIQPGGSLRLSCAASGVTVSSNYMSWVRQAPGKGLEWVSVIYSGGSTFYSDSVKGRFSISRDNSKNTLYLQMNSLRAEDTAVYYCARDLYYYGMDVWGQGTTVTVSS VL: DIQLTQSPSFLSASVGDRVTITCRASQGISTYLAWYQQKPGKAPKLLIYAASTLQSGVPSRFSGSGSGTEFTLTISSLQPEDFATYYCQQLDSYPGLTFGGGTKVEIKR 395000

Subsequent entry: mAb10939 (antibody, V domains shown) VH: EVQLVESGGGLVQPGGSLRLSCAASGLTVSSNYMNWVRQVPGKGLEWVSVIYSGGSKFYVDSVKGRFTISRHNSKNTLYLQMNSLRPEDTAVYYCTRDAQYYGMDVWGQGTTVTVSS VL: DIQMTQSPSSLSASVGDRVTITCRASQSISTYLHWYQQKPGEAPKLLIYAASSLQSGVPSRFSGSGSGTDFTLTISSLQPEDFATYYCQQSYSTPPEIFGQGTKLEIKR 299000
